Test system: human embryonic kidney (HEK293-T) cell line
Assay Notes: MTT cytotoxicity assay, HEK293-T
Condition Notes: Homo sapiens, HEK-293T, read-out: IC50 Hek293-T
Provide the reported IC50 of each item.

Kindly note the recorded IC50 for CC1=[N+]([O-])C(c2ccccc2)Nc2ccc(I)cc21 (centres unmarked) , which is 20.1 µM

Kindly note the recorded IC50 for CC1=[N+]([O-])C(c2ccc(F)cc2)Nc2ccc(I)cc21 (centres unmarked) , which is 22.3 µM

Kindly note the recorded IC50 for CC1=[N+]([O-])C(c2ccc(F)cc2)Nc2ccc(Br)cc21 (centres unmarked) , which is 41.7 µM

Kindly note the recorded IC50 for COc1cccc2c1C(=O)c1c(O)c3c(c(O)c1C2=O)C[C@@](O)(C(=O)CO)C[C@@H]3O[C@H]1C[C@H](N)[C@H](O)[C@H](C)O1 [Doxorubicin, doxorubicin, reference compound] , which is 0.87 µM

Kindly note the recorded IC50 for CC1=[N+]([O-])C(c2ccc(F)cc2)Nc2c(I)cc(Br)cc21 (centres unmarked) , which is 32.8 µM

Kindly note the recorded IC50 for CC1=[N+]([O-])C(c2ccccc2)Nc2ccc(Br)cc21 (centres unmarked) , which is 40.2 µM

Kindly note the recorded IC50 for CC1=[N+]([O-])C(c2ccc(Cl)cc2)Nc2c(Br)cc(I)cc21 (centres unmarked) , which is 59 µM

Kindly note the recorded IC50 for CC1=[N+]([O-])C(c2ccccc2)Nc2c(Br)cc(I)cc21 (centres unmarked) , which is 28 µM
